Test: mitochondrial membrane potential change in A549 cells, profiling panel, cell-based, JC-1 fluorescence, basal, 24 h, 100 nL (AID 1138);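 also: A549 lung adenocarcinoma cells under basal conditions with no added stimulus; test concentration not given here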
Conditions: higher = more signal
Lab note: anything with z-score at or over -0.3 counts as Satisfied; the rest go in Not satisfied.

[in] Hi, just wondering whether `C#C[C@@H]1Oc2ccccc2S(=O)(=O)N2CCC[C@H]12` shows z-score of -0.3 or higher.
[out] Satisfied

[in] Hi, just wondering whether `C=CC[C@@H]1C=C[C@H](ON=C[C@@H](OC)[C@H](C)C=CCC(=O)OC)[C@@H](CO)O1` shows z-score of -0.3 or higher.
[out] Satisfied

[in] Hi, just wondering whether `CC(C)=NOCc1cccc(-c2cc(-c3ccccc3)no2)c1` shows z-score of -0.3 or higher.
[out] Satisfied

[in] Hi, just wondering whether `CCN1C(=O)[C@H]2[C@H]3[C@H](O)C=CC(=O)[C@@H]3CC[C@H]2C1=O` shows z-score of -0.3 or higher.
[out] Not satisfied

[in] Hi, just wondering whether `COC(=O)[C@@H]1CCCN1C(=O)[C@@H](C)CO` shows z-score of -0.3 or higher.
[out] Not satisfied

[in] Hi, just wondering whether `COc1ccc(O[C@H]2C=C[C@@H](c3ccccc3)O[C@@H]2COC(=O)CCC(C)=NO[C@H](C)c2cn([C@@H]3COC[C@H]3O)nn2)cc1` shows z-score of -0.3 or higher.
[out] Not satisfied

[in] Hi, just wondering whether `COc1ccc(O[C@H]2C=C[C@@H](c3ccccc3)O[C@@H]2COC(=O)CCC(C)=NOCC[C@@H]2C=C[C@H](OC(C)=O)[C@@H](COC(C)=O)O2)cc1` shows z-score of -0.3 or higher.
[out] Satisfied
